For each of the compounds below, state its z-score.
- Target or test system: Endoribonuclease Dicer (Homo sapiens)
- Run description: Dicer cleavage of pre-miR-21 blockers – biochemical, cat-ELCCA, chemiluminescence, primary screen (AID 1347074);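 also: plate controls were vehicle for no effect and no enzyme for full effect; higher signal means more uncleaved substrate so more Dicer inhibition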
- Condition info: cat-ELCCA pre-miR-21 Dicer processing, at 25 µM, hits give high values
In all, about 47,000 compounds went through this assay and about 2,800 (6%) were called active. What follows is part of a selection rich in actives, with near analogues and random picks from the rest.
Numbers only.

Some entries whose results are on file:
Cc1ccc(/C(O)=C2\C(=O)C(=O)N(CCCN3CCOCC3)C2c2ccc(C)cc2)cc1 (configuration not stated) = 0.47
Cn1c2c(c(=O)n(C)c1=O)C(c1ccc(F)cc1)C1=C(N2)c2ccccc2C1=O (configuration not stated) = 1.52
CC1(C)N=C(N)N=C(N)N1c1cc(Cl)c(Cl)cc1Cl = -0.47
CC1=C(C(N)=O)C(c2ccc(F)cc2)n2nnnc2N1 (configuration not stated) = -0.27
CCOC(=O)C1=C(C)NC2=C(C(=O)c3ccccc32)C1c1cc(Br)c(OC)c(OC)c1 (configuration not stated) = 1.14
CCCCC#Cc1cncc(C(=O)O)c1 = 0.66

Now for another entry.
Given `Cc1ccc(S(=O)(=O)Nc2cc(C)cc(C)c2)cc1` , state its recorded z-score.
2.36
